Target: Glucocorticoid receptor (Homo sapiens) (UniProt P04150)
Sequence (P04150 whole entry): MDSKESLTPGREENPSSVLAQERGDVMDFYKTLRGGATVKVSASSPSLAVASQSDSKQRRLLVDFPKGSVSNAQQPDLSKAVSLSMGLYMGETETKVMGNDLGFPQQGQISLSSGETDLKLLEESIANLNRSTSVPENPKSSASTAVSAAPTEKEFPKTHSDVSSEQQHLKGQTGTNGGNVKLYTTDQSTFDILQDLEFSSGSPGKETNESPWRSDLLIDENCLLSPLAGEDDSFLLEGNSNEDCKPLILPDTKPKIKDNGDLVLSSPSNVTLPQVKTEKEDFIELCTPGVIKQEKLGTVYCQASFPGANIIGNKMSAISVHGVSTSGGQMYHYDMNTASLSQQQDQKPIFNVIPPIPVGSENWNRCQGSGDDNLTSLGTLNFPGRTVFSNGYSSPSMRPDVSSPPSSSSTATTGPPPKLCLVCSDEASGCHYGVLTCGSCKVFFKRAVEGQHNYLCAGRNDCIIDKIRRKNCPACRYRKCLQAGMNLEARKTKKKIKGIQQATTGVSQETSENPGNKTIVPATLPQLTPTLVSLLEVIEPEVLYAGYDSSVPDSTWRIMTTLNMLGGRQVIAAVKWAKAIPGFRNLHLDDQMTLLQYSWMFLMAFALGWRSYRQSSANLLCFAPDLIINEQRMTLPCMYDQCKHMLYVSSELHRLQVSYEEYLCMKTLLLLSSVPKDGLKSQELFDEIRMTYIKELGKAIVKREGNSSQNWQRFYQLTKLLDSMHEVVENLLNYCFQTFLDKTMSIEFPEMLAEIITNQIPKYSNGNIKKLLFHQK
Assay: SafetyScreen: GR Human Glucocorticoid NHR Binding Agonist Radioligand LeadHunter Assay, catalogue number: 469
Settings: Test compound concentration 10.0 uM
As shown below, each of these compounds has a reported inhibition value.
measure: inhibition (%)

structure_as_smiles=CC(C)[C@@H](Nc1ncnc2[nH]c(C(=O)N[C@@H]3CCN(C)C3)cc12)c1ccc2c(c1)S(=O)(=O)CCC2 units_symbol=% readout_number=11
structure_as_smiles=CC(C)[C@@H](Nc1ncnc2[nH]c(-c3cnn(C)c3C#N)cc12)c1ccc2c(n1)OCCO2 units_symbol=% readout_number=22
structure_as_smiles=CC(C)[C@H](Nc1ncnc2[nH]c(-c3cnn(C)c3C#N)cc12)c1ccc2c(n1)OCCO2 units_symbol=% readout_number=11
structure_as_smiles=CNCc1cc(-c2cc3c(N[C@@H](c4ccc5c(c4)S(=O)(=O)CCC5)C(C)C)ncnc3[nH]2)co1 units_symbol=% readout_number=21
structure_as_smiles=Cn1ncc(-c2cc3c(N[C@@H](c4ccc5c(n4)OCCO5)C(C)(C)C)ncnc3[nH]2)c1C#N units_symbol=% readout_number=28
structure_as_smiles=CNC(=O)Cn1cc(-c2cc3c(N[C@@H](c4ccc5c(c4)S(=O)(=O)CCC5)C(C)C)ncnc3[nH]2)cn1 units_symbol=% readout_number=5
structure_as_smiles=COc1ccc([C@H](Cc2nnn[nH]2)NC(=O)c2ncnc3[nH]ccc23)cc1 units_symbol=% readout_number=1

====

Biological target: Muscarinic acetylcholine receptor M2 (Homo sapiens)
Experiment: SafetyScreen: M2 Human Acetylcholine (Muscarinic) GPCR Binding Antagonist Radioligand LeadHunter Assay, catalogue number: 93
Settings: Test compound concentration 10.0 uM
As shown below, each of these compounds has a reported inhibition value.
measure: inhibition (%)

structure_as_smiles=CNC(=O)Cn1cc(-c2cc3c(N[C@@H](c4ccc5c(c4)S(=O)(=O)CCC5)C(C)C)ncnc3[nH]2)cn1 readout_number=7
structure_as_smiles=CC(C)[C@H](Nc1ncnc2[nH]c(-c3cnn(C)c3C#N)cc12)c1ccc2c(n1)OCCO2 readout_number=18
structure_as_smiles=C[C@H](C(=O)O)[C@@H](NC(=O)c1ncnc2[nH]ccc12)c1ccc(Br)cc1 readout_number=-4
structure_as_smiles=CC(C)[C@@H](Nc1ncnc2[nH]c(-c3cnn(C)c3C#N)cc12)c1ccc2c(n1)OCCO2 readout_number=15
structure_as_smiles=CNCc1cc(-c2cc3c(N[C@@H](c4ccc5c(c4)S(=O)(=O)CCC5)C(C)C)ncnc3[nH]2)co1 readout_number=52
structure_as_smiles=CC(C)[C@H](Nc1ncnc2[nH]ccc12)c1ccc2c(c1)S(=O)(=O)CCC2 readout_number=34
structure_as_smiles=CC(C)[C@@H](Nc1ncnc2[nH]c(C(=O)N[C@@H]3CCN(C)C3)cc12)c1ccc2c(c1)S(=O)(=O)CCC2 readout_number=52

====

Target: 5-hydroxytryptamine receptor 1B (Homo sapiens) (UniProt P28222)
Sequence (P28222 whole entry): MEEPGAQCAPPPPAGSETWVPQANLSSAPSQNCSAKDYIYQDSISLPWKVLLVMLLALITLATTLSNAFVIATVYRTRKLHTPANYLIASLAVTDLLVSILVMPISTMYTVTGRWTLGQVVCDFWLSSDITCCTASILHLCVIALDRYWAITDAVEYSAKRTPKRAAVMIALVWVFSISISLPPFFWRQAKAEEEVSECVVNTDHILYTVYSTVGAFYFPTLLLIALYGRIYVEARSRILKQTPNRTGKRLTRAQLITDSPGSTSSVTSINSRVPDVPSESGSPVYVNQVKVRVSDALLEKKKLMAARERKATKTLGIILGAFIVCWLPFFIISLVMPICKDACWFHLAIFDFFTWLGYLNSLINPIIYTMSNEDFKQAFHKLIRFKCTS
Assay: SafetyScreen: 5-HT1B Human Serotonin GPCR Binding Antagonist Radioligand LeadHunter Assay, catalogue number: 4376
Settings: Test compound concentration 10.0 uM
measure: inhibition (%)

structure_as_smiles=CC(C)[C@H](Nc1ncnc2[nH]ccc12)c1ccc2c(c1)S(=O)(=O)CCC2 measure=inhibition units_symbol=% readout_number=0
structure_as_smiles=CC(C)[C@@H](Nc1ncnc2[nH]c(C(=O)N[C@@H]3CCN(C)C3)cc12)c1ccc2c(c1)S(=O)(=O)CCC2 measure=inhibition units_symbol=% readout_number=17
structure_as_smiles=Cn1ncc(-c2cc3c(N[C@@H](c4ccc5c(n4)OCCO5)C(C)(C)C)ncnc3[nH]2)c1C#N measure=inhibition units_symbol=% readout_number=18
structure_as_smiles=CC(C)[C@@H](Nc1ncnc2[nH]c(-c3cnn(C)c3C#N)cc12)c1ccc2c(n1)OCCO2 measure=inhibition units_symbol=% readout_number=4
